Test system: COLO 205
Assay: Antiproliferative activity against human COLO205 cells
Assay type: functional, cell-based
pIC50: −log10 of the molar value.
Reported pIC50 values for a set of compounds
reported endpoint: pIC50

INSERT INTO results (compound, value_operator, test_value) VALUES
  ('NCCCCCCNC(=O)COC1=CC(=O)c2c(O)cccc2C1=O.O=C(O)C(F)(F)F', '=', 6.10),
  ('CC(C)(C)OC(=O)NCCCCCCNC(=O)COC1=CC(=O)c2ccccc2C1=O', '<', 5.00),
  ('NCCNC(=O)COC1=CC(=O)c2c(O)cccc2C1=O', '=', 5.33),
  ('NCCCC(=O)NCCCCNC(=O)COC1=CC(=O)c2c(O)cccc2C1=O.O=C(O)C(F)(F)F.O=C(O)C(F)(F)F', '=', 5.92),
  ('O=C(CCCCC1SCC2NC(=O)NC21)NCCCCCCNC(=O)COC1=CC(=O)c2ccccc2C1=O (stereo not given)', '<', 5.00),
  ('O=C(COC1=CC(=O)c2c(O)cccc2C1=O)NCCCCCCO', '=', 5.55),
  ('O=C(CCCCC1SCC2NC(=O)NC21)NCCCCCCNC(=O)COC1=CC(=O)c2c(O)cccc2C1=O (stereo not given)', '=', 5.85),
  ('CC(=O)NCCCCCCNC(=O)COC1=CC(=O)c2c(O)cccc2C1=O', '=', 5.62),
  ('NCCCCCCNC(=O)COC1=CC(=O)c2ccccc2C1=O', '<', 5.00),
  ('CC(C)(C)OC(=O)NCCNC(=O)COC1=CC(=O)c2c(O)cccc2C1=O', '=', 5.85);
